Molecular target: TLR7 (Homo sapiens, UniProt Q9NYK1)
Construct: expressed in transfected cells; host or cells: HEK293 (HEK-Blue-7 cells)
Sequence (Q9NYK1 27-1049): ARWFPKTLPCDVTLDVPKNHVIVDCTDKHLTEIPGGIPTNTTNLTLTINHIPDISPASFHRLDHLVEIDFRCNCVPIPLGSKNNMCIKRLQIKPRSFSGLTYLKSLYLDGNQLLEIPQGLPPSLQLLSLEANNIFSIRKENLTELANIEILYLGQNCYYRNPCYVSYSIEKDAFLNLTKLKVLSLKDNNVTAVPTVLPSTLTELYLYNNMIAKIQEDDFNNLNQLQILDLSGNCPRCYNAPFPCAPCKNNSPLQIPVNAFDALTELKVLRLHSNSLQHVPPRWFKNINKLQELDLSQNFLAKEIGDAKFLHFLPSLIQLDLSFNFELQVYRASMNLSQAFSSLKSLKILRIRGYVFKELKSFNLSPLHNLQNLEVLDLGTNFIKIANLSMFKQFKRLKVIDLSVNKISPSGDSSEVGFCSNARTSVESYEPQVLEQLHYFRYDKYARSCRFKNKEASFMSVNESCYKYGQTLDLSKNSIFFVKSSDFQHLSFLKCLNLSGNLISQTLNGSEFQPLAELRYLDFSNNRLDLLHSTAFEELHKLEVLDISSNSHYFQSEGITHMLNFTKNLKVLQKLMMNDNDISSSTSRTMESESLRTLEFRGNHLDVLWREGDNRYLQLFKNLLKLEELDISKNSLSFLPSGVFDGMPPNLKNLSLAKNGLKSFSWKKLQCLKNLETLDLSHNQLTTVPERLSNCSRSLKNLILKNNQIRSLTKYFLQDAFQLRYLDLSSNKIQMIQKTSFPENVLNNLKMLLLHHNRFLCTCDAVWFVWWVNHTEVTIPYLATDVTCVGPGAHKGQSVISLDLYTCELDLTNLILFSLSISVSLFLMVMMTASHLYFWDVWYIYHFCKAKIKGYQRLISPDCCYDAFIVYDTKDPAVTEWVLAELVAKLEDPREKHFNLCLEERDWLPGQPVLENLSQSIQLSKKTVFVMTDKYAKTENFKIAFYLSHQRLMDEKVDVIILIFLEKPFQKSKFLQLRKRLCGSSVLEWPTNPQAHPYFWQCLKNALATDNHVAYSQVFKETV
Assay: TLR7 reporter gene assay (NF-κB induction, HEK-Blue-7 cells), agonism
Assay type: cell-based
Details: read-out: EC50 (agonistic activity)
pEC50: −log10 of the molar value.
MEASURED_QUANTITY: pEC50

- CCCCc1nc2c(N)nc3ccccc3c2n1Cc1ccc(CNC(=S)NCC(=O)NCC(=O)NCC(=O)OC)cc1: 6.57

A = CCCCc1nc2c(N)nc3ccccc3c2n1Cc1ccc(-c2ccccc2)cc1
B = CCCCc1nc2c(N)nc3ccccc3c2n1Cc1ccc(CNC(=O)CCN2C(=O)CC(SC[C@@H](NC(=O)CC[C@@H](N)C(=O)OC)C(=O)NCC(=O)OC)C2=O)cc1 (stereo partly drawn) [Compound 30b]
Pick one: A or B . Which has the bigger pEC50 number? Selection: enter the item's label.
A

###

Biological target: TLR8 (Homo sapiens)
Sequence (Q9NR97 27-1041): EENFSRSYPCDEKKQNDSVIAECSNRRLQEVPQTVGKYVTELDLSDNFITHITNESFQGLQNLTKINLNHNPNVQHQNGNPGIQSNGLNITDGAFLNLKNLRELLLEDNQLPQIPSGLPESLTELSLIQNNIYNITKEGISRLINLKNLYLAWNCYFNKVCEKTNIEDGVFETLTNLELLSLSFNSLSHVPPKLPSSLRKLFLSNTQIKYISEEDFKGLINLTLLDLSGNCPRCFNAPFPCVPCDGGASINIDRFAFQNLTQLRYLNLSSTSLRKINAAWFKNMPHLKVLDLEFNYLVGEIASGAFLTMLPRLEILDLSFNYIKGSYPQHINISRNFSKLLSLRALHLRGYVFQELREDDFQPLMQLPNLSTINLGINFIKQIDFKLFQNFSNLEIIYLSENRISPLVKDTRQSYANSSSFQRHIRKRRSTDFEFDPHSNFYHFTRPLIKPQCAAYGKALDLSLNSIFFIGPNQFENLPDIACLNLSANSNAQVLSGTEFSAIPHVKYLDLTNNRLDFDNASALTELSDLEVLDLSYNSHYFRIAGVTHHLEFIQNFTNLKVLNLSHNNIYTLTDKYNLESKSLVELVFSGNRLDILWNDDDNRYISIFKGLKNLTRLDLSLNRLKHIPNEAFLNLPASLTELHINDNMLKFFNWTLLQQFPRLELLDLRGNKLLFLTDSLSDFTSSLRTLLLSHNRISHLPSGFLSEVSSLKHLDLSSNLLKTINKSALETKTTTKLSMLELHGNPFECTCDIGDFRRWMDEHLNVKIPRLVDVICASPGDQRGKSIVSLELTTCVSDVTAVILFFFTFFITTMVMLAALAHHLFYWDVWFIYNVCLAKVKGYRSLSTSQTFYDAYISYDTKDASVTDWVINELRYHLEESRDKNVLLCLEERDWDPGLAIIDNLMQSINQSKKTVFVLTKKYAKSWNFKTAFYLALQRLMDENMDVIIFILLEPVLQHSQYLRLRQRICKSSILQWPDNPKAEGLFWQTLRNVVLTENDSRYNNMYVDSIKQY
Test: TLR8 reporter gene assay (NF-κB induction, HEK-Blue-8 cells), agonism
Settings: Table 1; ND = not detected
MEASURED_QUANTITY: pEC50
The value called pEC50 is obtained by taking minus log10 of the concentration in mol/L.

Which measured pEC50 value corresponds to CCCCc1nc2c(N)nc3ccccc3c2n1Cc1ccc(CNC(=O)CCCCCCCCCCC(=O)NCc2ccc(Cn3c(CCCC)nc4c(N)nc5ccccc5c43)cc2)cc1 [Compound 52c] ?
5.32
